target: 72 kDa type IV collagenase (Homo sapiens); experiment: Inhibition of recombinant human MMP-2 preincubated for 10 mins followed by Mca-PLGL-Dpa-AR-NH2 substrate addition and measured for 5 mins by fluorescence assay; details: read-out: IC50
measurement.name: IC50 (µM)

[P] Oc1ccccc1C1CC(c2ccc(F)cc2)=NN1c1nc(-c2cccc(Br)c2)cs1 (centres undefined)
[Q] COc1ccc(C2=NN(c3nc(-c4ccc(C(F)(F)F)cc4)cs3)C(c3ccccc3O)C2)cc1 (centres undefined)
Ask: Quick one: lower IC50, P or Q ? Refer to your chosen entry by its label in the reply.
Result: P

[a] Oc1ccccc1C1CC(c2ccccc2)=NN1c1nc(-c2ccccc2)cs1 (centres undefined)
[b] Oc1ccccc1C1CC(c2ccccc2)=NN1c1nc(-c2ccc(Br)cc2)cs1 (centres undefined)
Ask: Compare the recorded IC50 of a and b ; state which is larger. Refer to your chosen entry by its label in the reply.
Result: b
(b: 34.8 µM, a: 21.6 µM)

---

molecular target: 72 kDa type IV collagenase (Homo sapiens, UniProt P08253); assay: Inhibition of recombinant human MMP-2 preincubated for 10 mins followed by Mca-PLGL-Dpa-AR-NH2 substrate addition and measured for 5 mins by fluorescence assay; settings: read-out: IC50
Sequence (P08253 whole entry): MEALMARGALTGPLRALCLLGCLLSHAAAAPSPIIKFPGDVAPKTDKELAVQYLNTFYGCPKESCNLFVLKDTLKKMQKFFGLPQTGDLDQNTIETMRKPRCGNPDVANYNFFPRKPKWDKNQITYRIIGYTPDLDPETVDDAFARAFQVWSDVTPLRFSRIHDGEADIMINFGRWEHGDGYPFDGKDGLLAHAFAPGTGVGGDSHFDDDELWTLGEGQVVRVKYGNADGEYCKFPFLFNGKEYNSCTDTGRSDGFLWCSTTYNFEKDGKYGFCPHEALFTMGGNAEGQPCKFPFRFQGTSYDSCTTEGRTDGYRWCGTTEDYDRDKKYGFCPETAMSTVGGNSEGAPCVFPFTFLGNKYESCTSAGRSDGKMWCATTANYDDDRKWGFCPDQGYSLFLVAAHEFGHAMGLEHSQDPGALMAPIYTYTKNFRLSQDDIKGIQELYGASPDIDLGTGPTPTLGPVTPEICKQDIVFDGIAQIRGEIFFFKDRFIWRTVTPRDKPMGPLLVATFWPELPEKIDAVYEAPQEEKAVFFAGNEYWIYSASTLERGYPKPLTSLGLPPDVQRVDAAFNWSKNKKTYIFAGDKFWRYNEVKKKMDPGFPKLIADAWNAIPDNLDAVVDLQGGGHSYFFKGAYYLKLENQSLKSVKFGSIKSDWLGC
pIC50: −log10 of the molar value.
measurement.name: pIC50

1) COc1ccc(C2=NN(c3nc(-c4ccccc4)cs3)C(c3ccccc3O)C2)cc1 (stereo not given)
4.89

[A] COc1ccc(C2=NN(c3nc(-c4cccc(OC)c4)cs3)C(c3ccccc3O)C2)cc1 (stereo not given)
[B] COc1ccc(-c2csc(N3N=C(c4ccc(F)cc4)CC3c3ccccc3O)n2)cc1 (stereo not given)
[C] COc1cccc(-c2csc(N3N=C(c4ccc(F)cc4)CC3c3ccccc3O)n2)c1 (stereo not given)
Ask: Arrange these compounds by their pIC50, starting with the largest number. Note for the reader: the ranking is given by listing the labels in the order requested.
Result: A, C, B
(A: 5.55, C: 5.17, B: 4.97)

---

test system: MCF7; experiment: Antiproliferative activity against human MCF7 cells after 48 hrs by MTT assay; type: functional, cell-based; settings: MCF7, 48 h
pIC50: −log10 of the molar value.
measurement.name: pIC50

1. Oc1ccccc1C1CC(c2ccccc2)=NN1c1nc(-c2ccc(C(F)(F)F)cc2)cs1 (stereo not given)
5.46
2. COc1cccc(-c2csc(N3N=C(c4ccc(F)cc4)CC3c3ccccc3O)n2)c1 (stereo not given)
5.40

[I] COc1ccc(-c2csc(N3N=C(c4ccc(F)cc4)CC3c3ccccc3O)n2)cc1 (stereo not given)
[II] Oc1ccccc1C1CC(c2ccc(F)cc2)=NN1c1nc(-c2ccc(Br)cc2)cs1 (stereo not given)
Ask: Compare the recorded pIC50 of I and II ; state which is larger. Refer to your chosen entry by its label in the reply.
Result: II

---

tested on: HEK-293T; test: Cytotoxicity against human 293T cells by MTT assay; format: cell-based
measurement.name: CC50 (µM)
Numeric only. Scale: µM

Past entries and their recorded results:
1) COc1ccc(C2=NN(c3nc(-c4cccc(OC)c4)cs3)C(c3ccccc3O)C2)cc1 (centres undefined)
35.2
2) COc1ccc(C2=NN(c3nc(-c4ccc(OC)cc4)cs3)C(c3ccccc3O)C2)cc1 (centres undefined)
63
3) Oc1ccccc1C1CC(c2ccccc2)=NN1c1nc(-c2ccccc2)cs1 (centres undefined)
55.1
4) COc1ccc(C2=NN(c3nc(-c4ccc(Br)cc4)cs3)C(c3ccccc3O)C2)cc1 (centres undefined)
71.9
5) Oc1ccccc1C1CC(c2ccc(F)cc2)=NN1c1nc(-c2ccc(Br)cc2)cs1 (centres undefined)
52

# input for lookup
Ask: Find CC50 (HEK-293T) for the entry Oc1ccccc1C1CC(c2ccc(F)cc2)=NN1c1nc(-c2ccccc2)cs1 (centres undefined)
Result: 50.7

---

Quick reference: CC50 of the listed items.
tested on: L02; assay: Cytotoxicity against human LO2 cells by MTT assay; type: cell-based
Numeric only. Scale: µM

1) COc1ccc(C2=NN(c3nc(-c4ccc(C(F)(F)F)cc4)cs3)C(c3ccccc3O)C2)cc1 (centres undefined)
45.6

Ask: For the compound shown here, COc1ccc(C2=NN(c3nc(-c4ccccc4)cs3)C(c3ccccc3O)C2)cc1 (centres undefined) , give the reported CC50.
Result: 75.2

Ask: For the compound shown here, COc1ccc(C2=NN(c3nc(-c4cccc(Br)c4)cs3)C(c3ccccc3O)C2)cc1 (centres undefined) , give the reported CC50.
Result: 68.7

---

target: 72 kDa type IV collagenase (Homo sapiens, UniProt P08253); assay: Inhibition of recombinant human MMP-2 preincubated for 10 mins followed by Mca-PLGL-Dpa-AR-NH2 substrate addition and measured for 5 mins by fluorescence assay; conditions: read-out: IC50
pIC50: −log10 of the molar value.
measurement.name: pIC50

Past entries and their recorded results:
1) C[C@@]1(O)c2cccc(O)c2C(=O)C2=C(O)[C@]3(O)C(=O)C(C(N)=O)=C(O)C[C@@H]3C[C@@H]21
5.89
2) Oc1ccccc1C1CC(c2ccccc2)=NN1c1nc(-c2ccc(C(F)(F)F)cc2)cs1 (stereo not given)
4.32
3) COc1ccc(C2=NN(c3nc(-c4ccc(OC)cc4)cs3)C(c3ccccc3O)C2)cc1 (stereo not given)
4.93

[A] Oc1ccccc1C1CC(c2ccccc2)=NN1c1nc(-c2cccc(Br)c2)cs1 (stereo not given)
[B] Oc1ccccc1C1CC(c2ccc(F)cc2)=NN1c1nc(-c2ccc(C(F)(F)F)cc2)cs1 (stereo not given)
Ask: Compare the recorded pIC50 of A and B ; state which is larger. Refer to your chosen entry by its label in the reply.
Result: A

---

tested on: MCF7; test: Antiproliferative activity against human MCF7 cells after 48 hrs by MTT assay; type: functional, cell-based; settings: MCF7, 48 h
measurement.name: IC50 (µM)

1. Cc1ccc(-c2cc(C(F)(F)F)nn2-c2ccc(S(N)(=O)=O)cc2)cc1 [CELECOXIB]
6.96
2. Oc1ccccc1C1CC(c2ccccc2)=NN1c1nc(-c2ccccc2)cs1 (stereo unspecified)
2.08
3. COc1ccc(C2=NN(c3nc(-c4cccc(Br)c4)cs3)C(c3ccccc3O)C2)cc1 (stereo unspecified)
4.42
4. Oc1ccccc1C1CC(c2ccccc2)=NN1c1nc(-c2cccc(Br)c2)cs1 (stereo unspecified)
1.07

[I] COc1cccc(-c2csc(N3N=C(c4ccccc4)CC3c3ccccc3O)n2)c1 (stereo unspecified)
[II] COc1ccc(C2=NN(c3nc(-c4ccc(OC)cc4)cs3)C(c3ccccc3O)C2)cc1 (stereo unspecified)
Ask: Quick one: lower IC50, I or II ? Refer to your chosen entry by its label in the reply.
Result: II

---

tested on: HEK-293T; assay: Cytotoxicity against human 293T cells by MTT assay; format: cell-based
Quick reference: CC50 of the listed items.
Numeric only. Scale: µM

1. COc1ccc(-c2csc(N3N=C(c4ccc(F)cc4)CC3c3ccccc3O)n2)cc1 (stereo not drawn)
59.4
2. Oc1ccccc1C1CC(c2ccccc2)=NN1c1nc(-c2ccc(Br)cc2)cs1 (stereo not drawn)
52.8
3. Oc1ccccc1C1CC(c2ccccc2)=NN1c1nc(-c2ccc(C(F)(F)F)cc2)cs1 (stereo not drawn)
25.4
4. COc1cccc(-c2csc(N3N=C(c4ccc(F)cc4)CC3c3ccccc3O)n2)c1 (stereo not drawn)
39.1
5. COc1ccc(C2=NN(c3nc(-c4ccccc4)cs3)C(c3ccccc3O)C2)cc1 (stereo not drawn)
64.1
6. Oc1ccccc1C1CC(c2ccc(F)cc2)=NN1c1nc(-c2cccc(Br)c2)cs1 (stereo not drawn)
70.1
7. COc1ccc(-c2csc(N3N=C(c4ccccc4)CC3c3ccccc3O)n2)cc1 (stereo not drawn)
57.1

# input for lookup
Ask: For the compound shown here, COc1cccc(-c2csc(N3N=C(c4ccccc4)CC3c3ccccc3O)n2)c1 (stereo not drawn) , give the reported CC50.
Result: 46.6

---

target: 72 kDa type IV collagenase (Homo sapiens); test: Inhibition of recombinant human MMP-2 preincubated for 10 mins followed by Mca-PLGL-Dpa-AR-NH2 substrate addition and measured for 5 mins by fluorescence assay; conditions: read-out: IC50
pIC50: −log10 of the molar value.
measurement.name: pIC50

Past entries and their recorded results:
1. COc1ccc(-c2csc(N3N=C(c4ccccc4)CC3c3ccccc3O)n2)cc1 (stereo not given)
4.95
2. COc1cccc(-c2csc(N3N=C(c4ccccc4)CC3c3ccccc3O)n2)c1 (stereo not given)
5.08
3. Oc1ccccc1C1CC(c2ccc(F)cc2)=NN1c1nc(-c2ccc(Br)cc2)cs1 (stereo not given)
4.91

[I] Oc1ccccc1C1CC(c2ccc(F)cc2)=NN1c1nc(-c2ccccc2)cs1 (stereo not given)
[II] COc1ccc(C2=NN(c3nc(-c4ccc(Br)cc4)cs3)C(c3ccccc3O)C2)cc1 (stereo not given)
Ask: Quick one: lower pIC50, I or II ? Refer to your chosen entry by its label in the reply.
Result: II
(II: 4.77, I: 5.02)
